molecular target: D(1A) dopamine receptor (Rattus norvegicus)
Sequence (P18901 whole entry): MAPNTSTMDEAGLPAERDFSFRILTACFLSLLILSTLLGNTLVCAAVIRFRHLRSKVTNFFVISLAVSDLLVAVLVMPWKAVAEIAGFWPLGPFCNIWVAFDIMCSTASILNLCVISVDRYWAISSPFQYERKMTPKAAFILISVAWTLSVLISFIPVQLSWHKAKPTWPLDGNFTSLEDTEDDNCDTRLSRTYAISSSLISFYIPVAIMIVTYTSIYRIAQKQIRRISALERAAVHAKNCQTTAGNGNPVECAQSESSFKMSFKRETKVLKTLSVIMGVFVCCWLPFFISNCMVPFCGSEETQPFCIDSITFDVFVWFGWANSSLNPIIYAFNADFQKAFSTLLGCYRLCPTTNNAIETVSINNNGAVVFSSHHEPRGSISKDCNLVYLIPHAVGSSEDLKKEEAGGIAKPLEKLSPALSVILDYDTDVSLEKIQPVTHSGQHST
MEASURED_QUANTITY: Ki
# number then unit; no other words

Past entries and their recorded results:
OCCN1CCN(C2Cn3cccc3Sc3ccc(F)cc32)CC1 (racemic) ... 72 nM
OCCN1CCN(C2Cn3cccc3Sc3ccc(Br)cc32)CC1 (racemic) ... 20 nM
CCN1CCN(C2Cn3cccc3Sc3ccc(F)cc32)CC1 (racemic) ... 31 nM

Exercise: Give reported Ki for CCN1CCN(C2Cn3cccc3Sc3ccc(Br)cc32)CC1 (racemic) (D(1A) dopamine receptor (Rattus norvegicus))
Key: 14 nM

Taken from ChEMBL document CHEMBL1135802.
